Each entry below carries its recorded TGI.
# Test system: A549 NSCLC
# assay.info: NCI tumour cell line growth inhibition, 48 h
Field: numeric (µM). Do not append units.

Guide cases for TGI, answers given:
O=C1CS/C(=N\S(=O)(=O)c2ccc(N3N=C4c5ccccc5CC4C3c3ccc(Cl)cc3)cc2)N1c1ccccc1 (stereo not drawn) | 65.8
Oc1ccc(C#CCOc2ccccc2)cc1CNCCN(Cc1ccccn1)Cc1ccccn1 | 3.47
C[C@]1(O)O[C@@H]2OCC[C@@H]2C2=C1C(=O)c1ccccc1C2=O | 35.2

Query: For CC(=O)NC(Cc1ccc(OP(=O)(OCc2ccc([N+](=O)[O-])o2)N(C)CCCCCl)cc1)C(=O)NC(C)c1ccc(OCC2CCCCC2)c(C(N)=O)c1 (stereo not drawn) , write its TGI.
Reply: 18.2

* * *

# System: SN12C renal
# assay.info: NCI tumour cell line growth inhibition, 48 h; in the data active = GI50 below about 0.43 µM; inactive = the rest
Please state which outcome applies, choosing from active, inactive

Solved entries:
N#Cc1c(N)nc(N2CCOCC2)c(C#N)c1-c1ccccc1Cl | inactive
CC(=O)OC1Oc2ccccc2-c2oc(=O)c(-c3cc4ccccc4oc3=O)cc21 (centres undefined) | inactive
Cn1c(=O)c(Oc2ccccc2)cc2cnc(NC3CCOCC3)nc21 | inactive
Cc1ccc(Sc2sc(-c3ccccc3)nc2[P+](c2ccccc2)(c2ccccc2)c2ccccc2)cc1 | active
O=C1CCS/C(=N\S(=O)(=O)c2ccc(N3N=C4c5ccccc5CC4C3c3cccs3)cc2)N1C(=O)c1ccccc1 (centres undefined) | inactive
CCOC(=O)Nc1nc2c(C)cccc2s1 | inactive

Here's the next entry for you.
Query: // param item: COc1ccc2c(c1)C1(C(=O)N2)C(C#N)=C(c2ccccc2)Nc2c1c(-c1ccccc1)nn2-c1ccccc1 (centres undefined) ; yields the recorded call
Reply: inactive

* * *

# System: HCT-15 colon
# assay.info: NCI tumour cell line growth inhibition, 48 h
assay.endpoint: TGI

Guide cases for TGI, answers given:
COC(=O)C1C(OCc2ccccc2)C2CCC1(OC)C=C2C (stereo not given) | > 100 µM
CC(C)(C)c1ccc(C(C)(C)C)c(N2C(=O)C3ON=C(c4ccc([N+](=O)[O-])cc4)C3C2=O)c1 (stereo not given) | > 25 µM
CCCCCCCCCCCCCCCCCCOCC(COP(=O)([O-])OCC[N+](C)(C)C)OC (stereo not given) | 11.3 µM
CSCCC(NC(=O)OCc1ccccc1)NC(=O)OCc1ccccc1 | > 100 µM

API: the following record is the query input.
Query: For "Cn1c(=O)c2c(nc(Nc3ccc(Cl)cc3)n3c(=O)n(-c4ccccc4)c(=O)n23)n(C)c1=O" , write its TGI.
Reply: > 100 µM

* * *

# Test system: OVCAR-3 ovarian
# assay.info: NCI tumour cell line growth inhibition, 48 h
Each entry below carries its recorded TGI.
Field: numeric (µM). Do not append units.

CN(C)CCCn1c2nc(=O)[nH]c(=O)c-2nc2cc(Cl)c(Cl)cc21 | 6.13
CC(C)C1CC[C@H](C)C[C@@H]1OC(=O)C(C(=O)O[C@H]1C[C@@H](C)CCC1C(C)C)C(O)[C@@H]1OC(C)(C)O[C@H]1C1COC(C)(C)O1 (some centres not stated) | 36.2
CCN(CC)CCCC(C)NC(=O)c1ccc2c(c1)C(=O)c1ccccc1C2=O (configuration not stated) | 32.2
CC/C=C/c1cc2cc[nH]c2c2c1C(C)C[C@@H]2C (some centres not stated) | 40.5

Query: For CCN1CCC(O)(c2ccc(Oc3ccc(C)cc3)cc2)C(C(=O)c2ccc(Oc3ccc(C)cc3)cc2)C1 (configuration not stated) , write its TGI.
Reply: 36.9
